Value source: PubChem BioAssay AID1996

Settings: buffer; pH 7.4; 200.0 µM
Recorded measurements of solubility kinetic, one per entry

- COMPOUND: "CCOc1ccccc1NC(=O)CCn1ccnc1"
  solubility kinetic: "37 µg/mL"
- COMPOUND: "C/C(=C\\c1ccc(N)cc1)c1nc2ccccc2[nH]1"
  solubility kinetic: "> 37.4 µg/mL"
- COMPOUND: "CN[C@H](CC(=O)O)C(=O)O"
  solubility kinetic: "> 22.1 µg/mL"
- COMPOUND: "O=C(COC(=O)Cc1ccccc1F)NCc1ccc(Cl)cc1"
  solubility kinetic: "17.5 µg/mL"
- COMPOUND: "O=Cc1cccn1-c1ccc2ccccc2c1"
  solubility kinetic: "15 µg/mL"
- COMPOUND: "CC(=O)Nc1ccc(N=Cc2c(O)c3ccccc3oc2=O)cc1"
  solubility kinetic: "3.8 µg/mL"
- COMPOUND: "COc1ccc(CN2CC(C(=O)NCCC(C)C)CC2=O)cc1 (configuration not stated)"
  solubility kinetic: "> 47.8 µg/mL"

----------
Recorded measurements of solubility kinetic, one per entry
Conditions: buffer; pH 7.4; 200.0 µM
RECORDED ENDPOINT: solubility kinetic (µg/mL)

- COMPOUND: "CC(NC(=O)c1ccccc1[N+](=O)[O-])C1CC2CCC1C2 (stereo not given)"
  RECORDED ENDPOINT: "solubility kinetic"
  LIMIT OPERATOR: "="
  RECORDED VALUE: 35.2
- COMPOUND: "COc1ccnc2c1c(=O)n(Cc1ccc(F)cc1)c(=O)n2C"
  RECORDED ENDPOINT: "solubility kinetic"
  LIMIT OPERATOR: "="
  RECORDED VALUE: 25.2
- COMPOUND: "COc1ccc(OCC(=O)Nc2nc3cc4c(cc3s2)OCCO4)cc1"
  RECORDED ENDPOINT: "solubility kinetic"
  LIMIT OPERATOR: "="
  RECORDED VALUE: 4.6
- COMPOUND: "CC1(C)CC(NC(=O)c2ccccc2)CC(C)(C)N1"
  RECORDED ENDPOINT: "solubility kinetic"
  LIMIT OPERATOR: ">"
  RECORDED VALUE: 39.1
- COMPOUND: "CC1CCCCC1NC(=O)CNC(=O)c1ccco1 (stereo not given)"
  RECORDED ENDPOINT: "solubility kinetic"
  LIMIT OPERATOR: "="
  RECORDED VALUE: 37.2
- COMPOUND: "CS(=O)(=O)N1CCC(C(=O)NCc2ccc(F)cc2)CC1"
  RECORDED ENDPOINT: "solubility kinetic"
  LIMIT OPERATOR: ">"
  RECORDED VALUE: 47.2
- COMPOUND: "COc1ccc(NC(=O)Cn2cc(C#N)c3ccccc32)cc1"
  RECORDED ENDPOINT: "solubility kinetic"
  LIMIT OPERATOR: "<"
  RECORDED VALUE: 0.2
- COMPOUND: "CCCCCCC(Cl)(Cn1ccnc1)c1ccccc1.O=[N+]([O-])O (stereo not given)"
  RECORDED ENDPOINT: "solubility kinetic"
  LIMIT OPERATOR: "="
  RECORDED VALUE: 35.3
- COMPOUND: "CC(C)(C)NC(=O)COC(=O)c1cc(Cl)ccc1[N+](=O)[O-]"
  RECORDED ENDPOINT: "solubility kinetic"
  LIMIT OPERATOR: ">"
  RECORDED VALUE: 47.2
- COMPOUND: "CCN(CC)S(=O)(=O)c1c(OC)cc(C)c(Cl)c1C"
  RECORDED ENDPOINT: "solubility kinetic"
  LIMIT OPERATOR: "="
  RECORDED VALUE: 18.3
- COMPOUND: "Cc1ccc(C(=O)OCC(=O)NCCC2=CCCCC2)cc1N"
  RECORDED ENDPOINT: "solubility kinetic"
  LIMIT OPERATOR: "="
  RECORDED VALUE: 21
- COMPOUND: "COc1ccc(CNC(=O)COC(=O)c2cc3ccccc3o2)cc1"
  RECORDED ENDPOINT: "solubility kinetic"
  LIMIT OPERATOR: "="
  RECORDED VALUE: 5.4
- COMPOUND: "CCN1CCN(C(=O)C(N)Cc2ccccc2)CC1 (stereo not given)"
  RECORDED ENDPOINT: "solubility kinetic"
  LIMIT OPERATOR: "="
  RECORDED VALUE: 37.5
- COMPOUND: "CC(NS(=O)(=O)c1cc(C(F)(F)F)ccc1Cl)C(=O)N(C)C1CCN(C)CC1 (stereo not given)"
  RECORDED ENDPOINT: "solubility kinetic"
  LIMIT OPERATOR: ">"
  RECORDED VALUE: 66.3
- COMPOUND: "CN(C)c1cccc(N(C)C)c1CNC(=O)C(C)(C)C"
  RECORDED ENDPOINT: "solubility kinetic"
  LIMIT OPERATOR: "="
  RECORDED VALUE: 39.7
- COMPOUND: "O=C(COC(=O)CCNS(=O)(=O)c1ccccc1)NC1CC1"
  RECORDED ENDPOINT: "solubility kinetic"
  LIMIT OPERATOR: "="
  RECORDED VALUE: 43.8
- COMPOUND: "Cn1c(N)nc2ccccc2c1=O"
  RECORDED ENDPOINT: "solubility kinetic"
  LIMIT OPERATOR: "="
  RECORDED VALUE: 21.9
- COMPOUND: "COc1ccccc1N1CCN(C(=S)Nc2ccc(F)cc2)CC1"
  RECORDED ENDPOINT: "solubility kinetic"
  LIMIT OPERATOR: "="
  RECORDED VALUE: 4
- COMPOUND: "COc1ccc(-c2nc(N)nc(C(F)(F)F)c2-c2cscn2)c(O)c1"
  RECORDED ENDPOINT: "solubility kinetic"
  LIMIT OPERATOR: "<"
  RECORDED VALUE: 0.2
- COMPOUND: "CCOC(=O)c1c(-c2ccccc2)oc2ccc(OCC(N)=O)cc12"
  RECORDED ENDPOINT: "solubility kinetic"
  LIMIT OPERATOR: "<"
  RECORDED VALUE: 0.7
- COMPOUND: "COc1cccc(-c2noc(-c3ccc(Br)o3)n2)c1"
  RECORDED ENDPOINT: "solubility kinetic"
  LIMIT OPERATOR: "="
  RECORDED VALUE: 0.5
- COMPOUND: "COc1ccc(CCNC(=O)C(=O)NCc2ccccn2)cc1"
  RECORDED ENDPOINT: "solubility kinetic"
  LIMIT OPERATOR: ">"
  RECORDED VALUE: 47
- COMPOUND: "Cc1ccc(CN(C)C(=O)CCc2c[nH]c3ccccc23)o1"
  RECORDED ENDPOINT: "solubility kinetic"
  LIMIT OPERATOR: "="
  RECORDED VALUE: 6.5
- COMPOUND: "CC1CC(C)CN(C(=O)CSc2n[nH]c(N)n2)C1 (stereo not given)"
  RECORDED ENDPOINT: "solubility kinetic"
  LIMIT OPERATOR: ">"
  RECORDED VALUE: 40.4
- COMPOUND: "CCNC(=O)N1CCN(C(=O)NCC)CC1"
  RECORDED ENDPOINT: "solubility kinetic"
  LIMIT OPERATOR: "="
  RECORDED VALUE: 13.6
